Experiment: Pharmacokinetics in female BALB/c nude mice bearing A375 xenografts, 1 day dosing (PK and PD study): plasma, tumor and brain concentrations, AUC
Format: in vivo
Conditions: mouse, plasma, po, 1.5 mg/kg, 1.5 mg/kg p.o. BID × 1 day; post 1st dose; 0.25 h; read-out: Mean Concentration in Plasma ± SEM
From the text: The concentrations of Dabrafenib, Compound 26 and Compound 141 in the treatment of female BALB/c nude mice bearing A375 xenografts are shown in Table 62-Table 72 and FIG. 52-FIG. 73.
Measured Property: concentration at 0.25 h

Please report concentration at 0.25 h for the following compound: CCN(C)S(=O)(=O)Nc1ccc(F)c(Oc2ccc3ncn([C@H]4COC5(CCN(C6CC7(C6)CN(c6cc8c(cc6F)c(N6CCC(=O)NC6=O)nn8C)C7)CC5)C4)c(=O)c3c2)c1C#N
1180 ng/mL
